# System: CCRF-CEM leukemia
# Assay name: NCI-60 one-dose screen, 48 h (100 = growth as untreated, 0 = no growth, -100 = all killed)
# Run parameters: 10 µM unless noted
About 83,000 compounds went through this panel and 20% of them were active in at least one assay; those are over-represented in the sample as a whole. Activity calls are given as the source filed them. How the source made its calls: active means growth percent below 10; inactive means the rest.
Please respond with reported growth for every item in the list.

Entry O=C(C1CCC1)N1N=C(c2ccc(-n3ccc(C(F)(F)F)n3)cc2)CC1c1ccc[nH]1 (stereo not drawn) ; growth = 89.9% (inactive)

Entry CC(=O)[C@@H]1CC[C@]2(CO)CC[C@]3(C)[C@H](CC[C@@H]4[C@@]5(C)CCCNC(C)(C)[C@@H]5CC[C@]43C)[C@@H]12 ; growth = 103% (inactive)

Entry CCOC(=O)Nc1ccc(-c2ccc3c(c2)NC(=O)/C3=C\c2ccc[nH]2)cc1 ; growth = 98.3% (inactive)

---

# Tested on: HCT-15 colon
# Assay name: NCI-60 one-dose screen, 48 h
# Run parameters: 10 µM unless noted
This is part of a sample that, as a whole, favours compounds with a hit. Of some 83,000 tested, about 20% had one in any assay. Activity calls are given as the source filed them. How the source made its calls: active means growth percent below 10; inactive means the rest.
Choose the fitting class; nothing outside True (active), False (inactive) is accepted.

stdin: Tell me the assay call for O=S(=O)(NCCNc1nccc(-c2c(-c3cccc(O)c3)nc3occn23)n1)c1cccc(F)c1 please.
stdout: False

stdin: Tell me the assay call for S=c1cc(S)c2cc(Br)ccc2[nH]1 please.
stdout: False

stdin: Tell me the assay call for Cc1cc2nc3c4cc([N+](=O)[O-])ccc4n(CCN(C)C)c3nc2cc1C please.
stdout: True

stdin: Tell me the assay call for CN1CCN(CCNc2nccc(-c3c(-c4cccc(O)c4)nc4sccn34)n2)S1(=O)=O please.
stdout: False

stdin: Tell me the assay call for CCNC(=O)Oc1ccc(/C(=C(\C)c2ccccc2)c2ccc(OCCN3CCCCC3)cc2)cc1 please.
stdout: False

stdin: Tell me the assay call for Cc1cc2cc3ccc(N(C)C)cc3nc2cc1N please.
stdout: False

stdin: Tell me the assay call for O=C1Nc2cc(-c3ccc(NC(=O)C4CC4)cc3)ccc2/C1=C/c1ccc[nH]1 please.
stdout: False

stdin: Tell me the assay call for O=C(/C=C/c1ccc(Cl)cc1)c1ccc(NC(=O)N2CCN(c3cc4c(cc3F)c(=O)c(C(=O)O)cn4C3CC3)CC2)cc1 please.
stdout: False

stdin: Tell me the assay call for CC(C)N1C(=O)S/C(=C2/SC(=O)N(C(C)C)C2=O)C1=O please.
stdout: False

stdin: Tell me the assay call for COC(=O)N[C@H]1CCc2c(Cl)c(OC)c(OC)c(OC)c2-c2ccc(SC)c(=O)cc21 please.
stdout: True

stdin: Tell me the assay call for O=C(Nc1ccc(F)cc1)Nc1ccc(NC(=O)c2cc(Cl)nc3ccccc23)cc1 please.
stdout: False

stdin: Tell me the assay call for O=C1c2cccc3c(-c4ccc5c(c4)ncn5C4CCCCC4)ccc(c23)C(=O)N1c1nc2ccccc2s1 please.
stdout: False

stdin: Tell me the assay call for COC1=CC(=O)c2ccccc2C1=O please.
stdout: False

stdin: Tell me the assay call for COc1ccc2[nH]c(O)c(/C=c3/cc4c(c(-c5ccc(F)cc5)n3)=Nc3ccccc3-4)c2c1 please.
stdout: False

stdin: Tell me the assay call for Cn1cc(-c2nc(-c3c[nH]c4c(Cl)nccc34)cs2)c2cc(Br)ccc21 please.
stdout: False

stdin: Tell me the assay call for COc1ccc(/C=C/c2nc(Nc3ccc(Cl)cc3)c3ccccc3n2)cc1 please.
stdout: False

stdin: Tell me the assay call for CN[C@@H](C)C(=O)N[C@H]1CCS[C@H]2CC(C)(C)[C@@H](C(=O)N[C@H]3c4ccccc4C[C@H]3OCC#CC#CCO[C@@H]3Cc4ccccc4[C@@H]3NC(=O)[C@H]3N4C(=O)[C@@H](NC(=O)[C@H](C)NC)CCS[C@H]4CC3(C)C)N2C1=O please.
stdout: False

stdin: Tell me the assay call for COc1cc2nc(-c3ccc(C(F)(F)F)cc3)cc(OCCCN3CCCC3)c2cc1OC please.
stdout: False

stdin: Tell me the assay call for C=C(C)[C@@H]1CC[C@]2(CN)CC[C@]3(C)[C@H](CC[C@@H]4[C@@]5(C)CCCNC(C)(C)[C@@H]5CC[C@]43C)[C@@H]12 please.
stdout: True

stdin: Tell me the assay call for CC(c1ccccc1)C(C(=O)c1ccccc1)c1ccccc1 (configuration not stated) please.
stdout: False

stdin: Tell me the assay call for COc1cc(/C(C)=C(\c2ccc(Cl)cc2)c2ccc(OCCN3CCCC3)cc2)ccc1F please.
stdout: True

stdin: Tell me the assay call for COc1ccc(-c2cnc3c(-c4cccc5ncccc45)cnn3c2)cc1 please.
stdout: False

stdin: Tell me the assay call for COc1cccc(-c2nc3occn3c2-c2ccnc(NCCNS(=O)(=O)c3cccc4ccccc34)n2)c1 please.
stdout: False

stdin: Tell me the assay call for C#CCNC(=O)[C@H](Cc1ccccc1)NC(=O)[C@]12CC[C@@H](C(=C)C)[C@@H]1[C@H]1CC[C@@H]3[C@@]4(C)CCC(=O)C(C)(C)[C@@H]4CC[C@@]3(C)[C@]1(C)CC2 please.
stdout: False

stdin: Tell me the assay call for Cc1ccc(-c2nc3ccccn3c2/C=C2/C(=O)Nc3cc(Cl)ccc32)cc1 please.
stdout: False

stdin: Tell me the assay call for OC(c1ccc(F)c(C(F)(F)F)c1)c1cnccc1NC1CCCCC1 (configuration not stated) please.
stdout: False

stdin: Tell me the assay call for N#Cc1c(-c2ccccc2)nc2c(c(-c3ccccc3)nn2-c2ccccc2)c1-c1ccc(O)cc1 please.
stdout: False
